Tested on: HEK-293T
Experiment: Incucyte cell viability with HEK293T; note: unitless GR value; below 1 slowed growth and below 0 cell loss
Type: toxicity, cell-based
Details: human, 6 h, 10 µM, compound concentration 10 uM, replicate number 2
Output Criterion met for records whose Growth Rate is lower than 0.3, Criterion not met for records at or above 0.3.

Below are worked cases with known answers.
{"COMPOUND": "CCN1CCN(Cc2ccc(Nc3ncc(F)c(-c4cc(F)c5nc(C)n(C(C)C)c5c4)n3)nc2)CC1 [ABEMACICLIB]", "LABEL": "Criterion not met"}
{"COMPOUND": "N#CN1CC[C@@H](C(=O)Nc2nc3c(s2)CN(C(=O)CN=[N+]=[N-])CC3)C1 [JYQ88]", "LABEL": "Criterion not met"}

// switching to the query compound
Query: Quick check: does CC[C@H](Nc1ncnc2[nH]cnc12)c1nc2cccc(F)c2c(=O)n1-c1ccccc1 [IDELALISIB] have Growth Rate under 0.3?
Response: Criterion met

---

Test system: U2OS
Test: Incucyte cell viability with U2OS; note: unitless GR value; below 1 slowed growth and below 0 cell loss
Type: toxicity, cell-based
Details: human, 24 h, 10 µM, compound concentration 10 uM, replicate number 1
QUANTITY KIND: Growth Rate
Please reply with the number alone, leaving off any unit.

A selection of reference data follows.
{"CPD SMILES": "O=C1CCCN1CCNc1nc(Nc2ccc(Cl)c(Cl)c2)ncc1C(F)(F)F", "Growth Rate": 0.37}
{"CPD SMILES": "CN(C)[C@H]1CC[C@H](Nc2ncc3ncnc(Nc4ccc(F)c(Cl)c4)c3n2)CC1", "Growth Rate": 0.45}
{"CPD SMILES": "COc1cc2nc(C)nc(N[C@H](C)c3cc(N)cc(C(F)(F)F)c3)c2cc1O[C@H]1CCOC1", "Growth Rate": 0.83}
{"CPD SMILES": "Cn1cc(-c2ccc3occ(-c4cccc(-c5ccncc5)c4)c3n2)cn1", "Growth Rate": 0.7}

Query: Record request: Growth Rate value, item Cc1nccn1-c1ccc(Sc2cccc(C3(C(N)=O)CCOCC3)c2)cc1
Response: 0.88

---

Measured Growth Rate, listed per entry for reference.
System: U2OS
Assay: Incucyte cell viability with U2OS; note: unitless GR value; below 1 slowed growth and below 0 cell loss
Format: toxicity, cell-based
Details: human, 6 h, 10 µM, compound concentration 10 uM, replicate number 2
Please reply with the number alone, leaving off any unit.

A selection of reference data follows.
{"MOLECULE": "CCc1cc2c(cc1N1CCC(N3CCOCC3)CC1)C(C)(C)c1[nH]c3cc(C#N)ccc3c1C2=O", "Growth Rate": 0.78}
{"MOLECULE": "Cc1nn(C)c(COc2ccc(N3CCN(S(=O)(=O)N(C)C)CC3)cc2)c1-c1cccc2c(CCCOc3cccc4ccccc34)c(C(=O)O)n(CCN3CCOCC3)c12", "Growth Rate": 0.93}
{"MOLECULE": "C[C@H](CCC(=O)O)[C@H]1CC[C@H]2[C@@H]3[C@H](O)C[C@@H]4C[C@H](O)CC[C@]4(C)[C@H]3C[C@H](O)[C@]12C", "Growth Rate": 0.92}
{"MOLECULE": "COCCNC1CCC(Nc2cc(-c3csc(NCC4(C#N)CCOCC4)n3)c(Cl)cn2)CC1 (stereo not drawn)", "Growth Rate": 0.51}
{"MOLECULE": "Cc1c(N2CCCC2)nc2ccc(Br)cc2c1C(=O)NC[C@H](CCC(=O)O)c1ccccc1Cl", "Growth Rate": 0.83}
{"MOLECULE": "CC(=O)N(CCN(C)C)c1ccc(N/C(=C2\\C(=O)Nc3cc(Cl)ccc32)c2ccccc2)cn1", "Growth Rate": 0.34}

Query: Record request: Growth Rate value, item Cn1cc(-c2cnc3ccc4ccc(CS(=O)(=O)NCc5ccccn5)cc4c(=O)c3c2)cn1
Response: 0.76

Query: Likewise for Cc1cc(CN)cc(C)c1-c1ncn(C)c1-c1ccnc2cc(F)ccc12.Cl ?
Response: 0.85

---

Tested on: U2OS
Assay: Incucyte cell viability with U2OS; note: unitless GR value; below 1 slowed growth and below 0 cell loss
Type: toxicity, cell-based
Details: human, 24 h, 10 µM, compound concentration 10 uM, replicate number 2
QUANTITY KIND: Growth Rate

A selection of reference data follows.
{"MOLECULE": "Oc1cc2c(cc1O)CN(C(=S)NCCc1ccc(Cl)cc1)CCC2 [CAPSAZEPINE]", "TARGET DESC": "U2OS", "Growth Rate": 0.93}
{"MOLECULE": "CCN1CCN(Cc2ccc(C(=O)Nc3ccc(C)c(Oc4ccc5c(c4)CC(=O)N5)c3)cc2C(F)(F)F)CC1.Cl.Cl", "TARGET DESC": "U2OS", "Growth Rate": -0.01}
{"MOLECULE": "Cc1cc(C(C#N)c2ccc(Cl)cc2)c(Cl)cc1NC(=O)c1cc(I)cc(I)c1O (centres undefined) [CLOSANTEL]", "TARGET DESC": "U2OS", "Growth Rate": 0.99}
{"MOLECULE": "C[C@]12CC[C@@H]3c4ccc(O)cc4CC[C@H]3[C@@H]1C[C@H]1OC(=O)C[C@]12O", "TARGET DESC": "U2OS", "Growth Rate": 0.72}
{"MOLECULE": "Cc1nn(C)c(COc2ccc(N3CCN(S(=O)(=O)N(C)C)CC3)cc2)c1-c1cccc2c(CCCOc3cccc4ccccc34)c(C(=O)O)n(CCN3CCOCC3)c12", "TARGET DESC": "U2OS", "Growth Rate": 0.98}

Query: Record request: Growth Rate value, item C=CC(=O)N1CCC[C@@H](n2nc(-c3ccc(Oc4ccccc4)cc3)c3c(N)ncnc32)C1 [IBRUTINIB]
Response: 0.55

Query: Likewise for C[C@@H](NC(=O)Cc1ccc(C2CC2)cc1)c1ccc(OCC(F)(F)F)cn1 ?
Response: 0.87

Query: Likewise for CN(C)C(=O)Cn1cc(-c2ccc(-c3nnc4ccccn34)cc2)cn1 ?
Response: 0.99

Query: Likewise for CCN(C(=O)c1cc(F)ccc1Oc1cncnc1N1CC2(CCN(C[C@H]3CC[C@H](NS(=O)(=O)CC)CC3)CC2)C1)C(C)C [REVUMENIB] ?
Response: 0.67

Query: Likewise for COC[C@@H](C)N[C@H]1CC[C@H](Nc2cc(-c3cccc(NCC4(C#N)CCOCC4)n3)c(Cl)cn2)CC1 ?
Response: 0.68

Query: Likewise for Cc1c[nH]c(-c2cnc(NCCNc3ccc(C#N)cn3)nc2-c2ccc(Cl)cc2Cl)n1 [LADUVIGLUSIB] ?
Response: 0.99

---

Tested on: HEK-293T
Test: Incucyte cell viability with HEK293T; note: unitless GR value; below 1 slowed growth and below 0 cell loss
Type: toxicity, cell-based
Details: human, 24 h, 10 µM, compound concentration 10 uM, replicate number 1
Output t for records whose Growth Rate is lower than 0.8, f for records at or above 0.8.

{"MOLECULE": "Cc1ccc(NC(=O)c2ccc3c(c2)OCCO3)cc1NC(=O)c1ccc2nc(OCCN3CCCC3)ccc2c1", "LABEL": "t"}
{"MOLECULE": "Cc1nc2ccc(Oc3ccc(F)cc3)cc2c(=O)n1C[C@H]1CCCN(C(C)C)C1.Cl", "LABEL": "t"}
{"MOLECULE": "Clc1ccccc1C(c1ccccc1)(c1ccccc1)n1cccn1", "LABEL": "f"}

Query: Quick check: does Cc1cc2nc(N3CCC(C(=O)NC4CCCC4)CC3)n(C(C)C)c2cc1C have Growth Rate under 0.8?
Response: f

Query: Likewise for C[C@@H](Oc1cc(-n2cnc3ccc(OC4CCN(C)CC4)cc32)sc1C(N)=O)c1ccccc1Cl [GSK-579289A] ?
Response: f

Query: Likewise for Cl.Clc1ccc(OC[C@H]2CCN2)cn1 ?
Response: f

Query: Likewise for Cn1cc(-c2ccc(N(C(=O)NCc3ccccc3)[C@H]3CC[C@H](Nc4ccc(C#N)cn4)CC3)cc2)ccc1=O ?
Response: t

Query: Likewise for N[C@@H]1CCCC[C@H]1Oc1ccc2ncc(-c3cc4ccccc4o3)n2n1 ?
Response: t

Query: Likewise for CO[C@H]1C[C@@H]2CC[C@@H](C)[C@@](O)(O2)C(=O)C(=O)N2CCCC[C@H]2C(=O)O[C@H]([C@H](C)C[C@@H]2CC[C@@H](O)[C@H](OC)C2)CC(=O)[C@H](C)/C=C(\C)[C@@H](O)[C@@H](OC)C(=O)[C@H](C)C[C@H](C)/C=C/C=C/C=C/1C [SIROLIMUS] ?
Response: t

Query: Likewise for CC(C=CC1=C(C)CCCC1(C)C)=CC=CC(C)=CC(=O)O ?
Response: f

Query: Likewise for Cn1c(C2(NC(=O)c3ccc4c(C5CCCC5)c(-c5ncc(Br)cn5)n(C)c4c3)CCC2)nc2ccc(/C=C/C(=O)[O-])cc21.[Na+] [DELEOBUVIR SODIUM] ?
Response: f

Query: Likewise for O=C1NC(=NCc2cccs2)SC1=Cc1ccc2ncccc2c1 ?
Response: t

Query: Likewise for CCOC(=O)C1=C[C@]2(CC)CCCN3CCc4c(n1c1ccccc41)[C@@H]32 [VINPOCETINE] ?
Response: f

Query: Likewise for CCc1nc(-c2cccc(C)c2)c(-c2ccnc(NC(=O)c3ccccc3)c2)s1 [TAK-715] ?
Response: f

Query: Likewise for O=C(Nc1ccc(Oc2ccc(Cl)cc2)c(Cl)c1)c1cc(I)cc(I)c1O [RAFOXANIDE] ?
Response: t

Query: Likewise for Oc1cccc(Nc2ccnc3[nH]c4ccccc4c23)c1 ?
Response: t
